Provenance of the data: ChEMBL document CHEMBL1151112

Measured EC50, listed per entry.
experimental_details: Induction of morphological transformation of rat ASK cells into astrocytes after 1 hr by light microscopy
Type: functional
experimental_conditions: read-out: ED50 (the source's name)

molecule | qualifying_sign | EC50, µM
CC1=C(/C=C/C(C)=C/C=C/C(C)=C/CO)C(C)(C)CCC1 | > | 25
CC1=C(/C=C/C(C)C/C=C/C(C)=C/C(=O)O)C(C)(C)CCC1 (stereo not given) | = | 10
C=C[C@@]1(C)CC(=O)[C@@H]2[C@@]3(C)CCCC(C)(C)[C@@H]3[C@H](O)[C@H](OC(C)=O)[C@@]2(C)O1 | > | 100
C=C[C@@]1(C)CC(=O)[C@]2(O)[C@@]3(C)[C@@H](O)CCC(C)(C)[C@@H]3[C@H](O)[C@H](O)[C@@]2(C)O1 | = | 3.86
CC1=C(/C=C/C(C)=C/C=C/C(C)=C/C=C/C(=O)O)C(C)(C)CCC1 | > | 25
CCNC(=O)/C=C(C)/C=C/C=C(C)/C=C/c1c(C)cc(OC)c(C)c1C [MOTRETINIDE] | > | 25
CC1=C(/C=C/C(C)=C/C=C/C(C)=C/C(=O)O)C(C)(C)CCC1 | = | 10
CC(/C=C/C1C(C)CCCC1(C)C)=C\C=C\C(C)=C\C(=O)O (stereo not given) | < | 10
C=C[C@@]1(C)CC(=O)[C@]2(O)[C@@]3(C)[C@@H](O)CCC(C)(C)[C@@H]3[C@H](O)[C@H](OC(C)=O)[C@@]2(C)O1 | = | 0.07
COC(C)C1=C(/C=C/C(C)=C/C=C/C(C)=C/C(=O)O)C(C)(C)CC1 (stereo not given) | < | 10
